- Test system: Monocotyledonous and dicotyledonous test plants
- ASSAY_PROTOCOL: Herbicidal action prior to emergence of the plants (pre-emergence action), Example B1
- Format: in vivo
- APPLIED_CONDITIONS: preemergence application, 250 g/ha, BRAPL, evaluated after 4 weeks; 100%=total damage, 0%=no damage
- Protocol: Monocotyledonous and dicotyledonous test plants are sown in seed trays in standard soil. […] After a 4-week test period, the test is evaluated (100%=total damage to plant; 0%=no damage to plant; NC not evaluated).
For each of the compounds below, state its herbicidal damage, BRAPL.
Phrase the answer as number then unit, nothing more needed.

{"COMPOUND": "Cc1nc2c(C(=O)C3=C(O)C(C)(C)C(=O)C(C)(C)C3=O)ccc(C(F)(F)F)n2n1", "herbicidal damage, BRAPL": "80%"}
{"COMPOUND": "CCc1nnc2c(C(=O)C3=C(O)C4CCC(C4)C3=O)ccc(C(F)(F)F)n12 (centres unmarked)", "herbicidal damage, BRAPL": "60%"}
{"COMPOUND": "O=C(C1=C(O)C2CCC(C2)C1=O)c1ccc(C(F)(F)F)n2cnnc12 (centres unmarked)", "herbicidal damage, BRAPL": "30%"}
{"COMPOUND": "CCSc1nnc2c(C(=O)C3=C(O)C4CCC(C4)C3=O)ccc(C(F)(F)F)n12 (centres unmarked)", "herbicidal damage, BRAPL": "60%"}
{"COMPOUND": "O=C(C1=C(O)C2CCC(C2)C1=O)c1ccc(C(F)(F)F)n2c(Cl)nnc12 (centres unmarked)", "herbicidal damage, BRAPL": "100%"}
{"COMPOUND": "O=C1CCCC(O)=C1C(=O)c1ccc(C(F)(F)F)n2c(OC(F)F)nnc12", "herbicidal damage, BRAPL": "60%"}

Hey, can you go through the list below and give me herbicidal damage, BRAPL for every item?
1. O=C(C1=C(O)C2CCC(C2)C1=O)c1ccc(C(F)(F)F)n2nc(-c3ccc(Cl)cc3)nc12 (centres unmarked)
2. Cc1nnc2c(C(=O)C3=C(O)C4CCC(C4)C3=O)ccc(C(F)F)n12 (centres unmarked)

stdout:
1: 50%; 2: 40%

---

- Tested on: Monocotyledonous and dicotyledonous test plants
- ASSAY_PROTOCOL: Herbicidal action after emergence of the plants (post-emergence herbicidal action), Example B2
- Assay type: in vivo
- APPLIED_CONDITIONS: postemergent application, 125 g/ha, SETFA, 2- to 3-leaf stage, evaluated after 2-3 weeks; 100%=total damage
- Description: Monocotyledonous and dicotyledonous test plants are sown in seed trays in standard soil. […] After a 2- to 3-week test period, the test is evaluated (100%=total damage to plant; 0%=no damage to plant).
Lab note: anything with herbicidal damage, SETFA at or over 70% counts as Condition met; the rest go in Condition not met.

{"COMPOUND": "O=C(C1=C(O)C2CCC(C2)C1=O)c1ccc(C(F)(F)F)n2c(C3CC3)nnc12 (stereo not drawn)", "CLASS_LABEL": "Condition met"}

stdin: Textbook exercise: given the entry Cc1nnc2c(C(=O)C3=C(O)CCCC3=O)ccc(C(F)(F)F)n12 , state whether its herbicidal damage, SETFA is greater than or equal to 70%.
stdout: Condition met

stdin: Textbook exercise: given the entry O=C(C1=C(O)C2CCC(C2)C1=O)c1ccc(C(F)(F)F)n2cnnc12 (stereo not drawn) , state whether its herbicidal damage, SETFA is greater than or equal to 70%.
stdout: Condition met
